Numbers sourced from PubChem BioAssay (NCI).

System: OVCAR-8 ovarian
Test: NCI-60 one-dose screen, 48 h (100 = growth as untreated, 0 = no growth, -100 = all killed)
Details: 10 µM unless noted
Procedure: Growth inhibition of the OVCAR-8 human tumor cell line is measured as a screen for anti-cancer activity. Cells are grown in 96 well plates and exposed to the test compound for 48 hours. Compounds are tested at a single concentration, which is 10^-5 M for most compounds. The reported endpoint is percent growth (GI% or GIPRCNT), where numbers from 0 - 100% represent growth inhibition, and numbers from -100% - 0 represent cell death. For example, a value of 40 represents 60% growth inhibition. […]
The panel holds about 83,000 compounds, 20% with a hit somewhere; the sample as a whole holds those more often.
Kindly state growth for each of the entries shown.
Give bare numbers, in %.

Sample answers from the record:
O=C(Nc1ccc(-n2cc(-c3ccncc3)c(-c3ccc(O)c(Cl)c3)n2)cc1)c1ccc(Cl)c(C(F)(F)F)c1 : 17.8
O=C(O)c1ccc2nc(-c3ccc(OCCCCCOc4ccc(-c5nc6ccc(C(=O)O)cc6[nH]5)cc4)cc3)[nH]c2c1 : 49

Now take the following molecule into account.
Request - read-out growth | tested on OVCAR-8 ovarian | molecule COc1ccc2c(c1)OC(N(C(C)=O)C(C)=O)=C(C#N)C2c1ccc(F)cc1 (stereo not drawn)
38.5
